Biological target: Adenosine receptor A1 (Homo sapiens) (UniProt P30542)
Assay: Activity at human A1 adenosine receptor expressed in CHO cells assessed as inhibition of forskolin-stimulated cAMP production at 10 uM after 30 min
Type: functional, cell-based
Value kind: inhibition (%)

> print(dat)
                         chemical.structure  unit.of.measurement  number
1  CC(C)[C@H](Nc1nc(Cl)nc2c1ncn2[C@H]1[C@H](O)[C@H](O)[C@@H]2C[C@@H]21)C1CC1                    %    20.8
2  O[C@@H]1[C@H](O)[C@@H]2C[C@@H]2[C@H]1n1cnc2c(N[C@@H](c3ccccc3)C3CC3)nc(Cl)nc21                    %    -7.4

A = O[C@@H]1[C@H](O)[C@@H]2C[C@@H]2[C@H]1n1cnc2c(N[C@@H](CC3CC3)C3CC3)nc(Cl)nc21
B = O[C@@H]1[C@H](O)[C@@H]2C[C@@H]2[C@H]1n1cnc2c(NCC(C3CC3)C3CC3)nc(Cl)nc21
## Task Recorded inhibition values differ for A and B ; which one is higher? State your choice using its label.
## Result A
(A: 24%, B: -9%)

###

Measured Ki on Adenosine receptor A2a (Homo sapiens, UniProt P29274) follows.
Sequence (P29274 whole entry): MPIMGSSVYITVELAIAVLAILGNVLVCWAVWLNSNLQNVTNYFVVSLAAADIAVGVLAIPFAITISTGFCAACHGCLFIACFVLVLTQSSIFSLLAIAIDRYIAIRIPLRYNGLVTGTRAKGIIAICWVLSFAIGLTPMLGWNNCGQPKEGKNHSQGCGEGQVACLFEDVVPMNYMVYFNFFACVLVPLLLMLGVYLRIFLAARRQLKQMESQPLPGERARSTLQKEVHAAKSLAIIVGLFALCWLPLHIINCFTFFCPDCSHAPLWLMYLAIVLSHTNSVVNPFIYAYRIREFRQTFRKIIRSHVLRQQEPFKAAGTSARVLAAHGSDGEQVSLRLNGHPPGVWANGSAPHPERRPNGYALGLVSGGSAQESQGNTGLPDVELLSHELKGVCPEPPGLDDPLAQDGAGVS
Respond with the bare value in µM.

Below, 2 molecules whose answers are already recorded.
> print(dat)
                         chemical.structure                                    target  value.kind  number
1  O[C@@H]1[C@H](O)[C@@H]2C[C@@H]2[C@H]1n1cnc2c(N[C@H](C3CCC3)C3CC3)nc(Cl)nc21  Adenosine receptor A2a (Homo sapiens, UniProt P29274)          Ki    6.45
2  O[C@@H]1[C@H](O)[C@@H]2C[C@@H]2[C@H]1n1cnc2c(NC(C3CC3)C3CC3)nc(I)nc21  Adenosine receptor A2a (Homo sapiens, UniProt P29274)          Ki    2.23

Consider the additional molecule presented here.
## Task Query the reported Ki for Adenosine receptor A2a (Homo sapiens, UniProt P29274); item: `O[C@@H]1[C@H](O)[C@@H]2C[C@@H]2[C@H]1n1cnc2c(N[C@@H](C3CCC3)C3CC3)nc(Cl)nc21`
## Result 5.47

###

Biological target: Adenosine receptor A3 (Homo sapiens, UniProt P0DMS8)
Sequence (P0DMS8 whole entry): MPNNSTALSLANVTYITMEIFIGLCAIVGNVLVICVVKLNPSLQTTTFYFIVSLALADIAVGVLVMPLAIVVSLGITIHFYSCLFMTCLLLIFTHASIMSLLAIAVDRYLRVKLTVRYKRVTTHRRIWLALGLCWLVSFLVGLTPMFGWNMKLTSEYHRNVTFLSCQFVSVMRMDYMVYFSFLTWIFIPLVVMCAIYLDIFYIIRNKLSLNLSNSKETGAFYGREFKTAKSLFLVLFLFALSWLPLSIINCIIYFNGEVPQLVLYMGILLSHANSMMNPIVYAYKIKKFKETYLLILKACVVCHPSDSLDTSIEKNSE
Value kind: Ki (nM)

Here are 5 compounds together with their reported answers.
> print(dat)
                         chemical.structure                                    target  value.kind  number
1  O[C@@H]1[C@H](O)[C@@H]2C[C@@H]2[C@H]1n1cnc2c(N[C@H](C3CCC3)C3CC3)nc(Cl)nc21  Adenosine receptor A3 (Homo sapiens, UniProt P0DMS8)          Ki    2790
2  O[C@@H]1[C@H](O)[C@@H]2C[C@@H]2[C@H]1n1cnc2c(N[C@@H](C3CCC3)C3CC3)nc(Cl)nc21  Adenosine receptor A3 (Homo sapiens, UniProt P0DMS8)          Ki    2930
3  NCCNC(=O)Cc1ccc(NC(=O)Cc2ccc(Nc3ncnc4c3ncn4[C@@H]3O[C@H](CO)[C@@H](O)[C@H]3O)cc2)cc1  Adenosine receptor A3 (Homo sapiens, UniProt P0DMS8)          Ki    12.4
4  O[C@@H]1[C@H](O)[C@@H]2C[C@@H]2[C@H]1n1cnc2c(N[C@H](c3ccccc3)C3CC3)nc(Cl)nc21  Adenosine receptor A3 (Homo sapiens, UniProt P0DMS8)          Ki    2200
5  O[C@@H]1[C@H](O)[C@@H]2C[C@@H]2[C@H]1n1cnc2c(N[C@@H](c3ccccc3)C3CC3)nc(Cl)nc21  Adenosine receptor A3 (Homo sapiens, UniProt P0DMS8)          Ki     790

A = O[C@@H]1[C@H](O)[C@@H]2C[C@@H]2[C@H]1n1cnc2c(NC(C3CC3)C3CC3)ncnc21
B = O[C@@H]1[C@H](O)[C@@H]2C[C@@H]2[C@H]1n1cnc2c(NC(C3CC3)C3CC3)nc(I)nc21
## Task Which numeric Ki is bigger, that of A or that of B ? When you have decided, please share the label of that item.
## Result B
(B: 182 nM, A: 17 nM)

###

Target: Adenosine receptor A1 (Homo sapiens)
Sequence (whole entry): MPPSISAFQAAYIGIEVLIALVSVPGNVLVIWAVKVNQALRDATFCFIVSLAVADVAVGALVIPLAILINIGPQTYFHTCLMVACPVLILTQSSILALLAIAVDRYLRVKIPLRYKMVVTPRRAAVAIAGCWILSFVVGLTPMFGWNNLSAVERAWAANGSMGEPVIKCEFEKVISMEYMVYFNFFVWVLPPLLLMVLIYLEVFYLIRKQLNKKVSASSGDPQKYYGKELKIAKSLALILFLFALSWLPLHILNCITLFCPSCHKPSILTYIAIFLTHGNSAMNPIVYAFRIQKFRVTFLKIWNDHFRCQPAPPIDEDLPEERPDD
Assay: Activity at human A1 adenosine receptor expressed in CHO cells assessed as inhibition of forskolin-stimulated cAMP production at 10 uM after 30 min
Format: functional, cell-based
Value kind: inhibition (%)

> print(dat)
                         chemical.structure  number
1  O[C@@H]1[C@H](O)[C@@H]2C[C@@H]2[C@H]1n1cnc2c(N[C@H](C3CCC3)C3CC3)nc(Cl)nc21    18.1
2  OC[C@H]1O[C@@H](n2cnc3c(NC4CCCC4)ncnc32)[C@H](O)[C@@H]1O     100
3  O[C@@H]1[C@H](O)[C@@H]2C[C@@H]2[C@H]1n1cnc2c(N[C@@H](C3CCC3)C3CC3)nc(Cl)nc21    33.4

1 = O[C@@H]1[C@H](O)[C@@H]2C[C@@H]2[C@H]1n1cnc2c(N[C@H](CC3CC3)C3CC3)nc(Cl)nc21
2 = CC(C)[C@@H](Nc1nc(Cl)nc2c1ncn2[C@H]1[C@H](O)[C@H](O)[C@@H]2C[C@@H]21)C1CC1
## Task // task: argmin of inhibition over [ 1 , 2 ] Return value: the label identifying the chosen record.
## Result 1

###

Recorded Ki values (Adenosine receptor A1 (Homo sapiens)) are given below.
Value kind: Ki (µM)

In the examples that follow, each entry is paired with its recorded Ki.
> print(dat)
                         chemical.structure  value.kind  number
1  O[C@@H]1[C@H](O)[C@@H]2C[C@@H]2[C@H]1n1cnc2c(N[C@H](C3CCC3)C3CC3)nc(Cl)nc21          Ki    0.12
2  O[C@@H]1[C@H](O)[C@@H]2C[C@@H]2[C@H]1n1cnc2c(N[C@@H](c3ccccc3)C3CC3)nc(Cl)nc21          Ki       3
3  O[C@@H]1[C@H](O)[C@@H]2C[C@@H]2[C@H]1n1cnc2c(N[C@@H](C3CCC3)C3CC3)nc(Cl)nc21          Ki    0.27

P = NNc1nc(NC(C2CC2)C2CC2)c2ncn([C@H]3[C@H](O)[C@H](O)[C@@H]4C[C@@H]43)c2n1
Q = O=C(O)c1cnn(-c2nc(NC(C3CC3)C3CC3)c3ncn([C@H]4[C@H](O)[C@H](O)[C@@H]5C[C@@H]54)c3n2)c1
## Task Between P and Q , which one shows the smaller Ki number? Refer to your chosen item by its label in the answer.
## Result P
(P: 0.21 µM, Q: 1.08 µM)

###

Molecular target: Adenosine receptor A1 (Homo sapiens) (UniProt P30542)
Experiment: Activity at human A1 adenosine receptor expressed in CHO cells assessed as inhibition of forskolin-stimulated cAMP production at 10 uM after 30 min
Type: functional, cell-based
Value kind: inhibition (%)

Guide cases for inhibition, answers given:
> print(dat)
                         chemical.structure  number
1  O[C@@H]1[C@H](O)[C@@H]2C[C@@H]2[C@H]1n1cnc2c(N[C@H](c3ccccc3)C3CC3)nc(Cl)nc21    -2.4
2  NCCNC(=O)Cc1ccc(NC(=O)Cc2ccc(Nc3ncnc4c3ncn4[C@@H]3O[C@H](CO)[C@@H](O)[C@H]3O)cc2)cc1      94

a = CC[C@@H](Nc1nc(Cl)nc2c1ncn2[C@H]1[C@H](O)[C@H](O)[C@@H]2C[C@@H]21)C1CC1
b = CC[C@H](Nc1nc(Cl)nc2c1ncn2[C@H]1[C@H](O)[C@H](O)[C@@H]2C[C@@H]21)C1CC1
## Task Lab log: flag the item ( a or b ) with the smaller inhibition figure. Answer = label.
## Result a
(a: 37.3%, b: 57.9%)

###

Target: Adenosine receptor A2a (Homo sapiens, UniProt P29274)
Assay: Displacement of [3H]CGS21680 from human A2a adenosine receptor expressed in HEK293 cells at 10 uM after 60 min by Perkin Elmer Liquid Scintillation Analyzer
Type: cell-based
Value kind: inhibition (%)

In the examples that follow, each entry is paired with its recorded inhibition.
> print(dat)
                         chemical.structure                                    target  value.kind  unit.of.measurement  number
1  O[C@@H]1[C@H](O)[C@@H]2C[C@@H]2[C@H]1n1cnc2c(NC(C3CC3)C3CC3)ncnc21  Adenosine receptor A2a (Homo sapiens, UniProt P29274)  inhibition                    %      38
2  NNc1nc(NC(C2CC2)C2CC2)c2ncn([C@H]3[C@H](O)[C@H](O)[C@@H]4C[C@@H]43)c2n1  Adenosine receptor A2a (Homo sapiens, UniProt P29274)  inhibition                    %      43
3  O[C@@H]1[C@H](O)[C@@H]2C[C@@H]2[C@H]1n1cnc2c(N[C@@H](c3ccccc3)C3CC3)nc(Cl)nc21  Adenosine receptor A2a (Homo sapiens, UniProt P29274)  inhibition                    %      46
4  O[C@@H]1[C@H](O)[C@@H]2C[C@@H]2[C@H]1n1cnc2c(N[C@H](c3ccccc3)C3CC3)nc(Cl)nc21  Adenosine receptor A2a (Homo sapiens, UniProt P29274)  inhibition                    %      36

1 = O[C@@H]1[C@H](O)[C@@H]2C[C@@H]2[C@H]1n1cnc2c(NCC(C3CC3)C3CC3)nc(Cl)nc21
2 = O=C(O)c1cnn(-c2nc(NC(C3CC3)C3CC3)c3ncn([C@H]4[C@H](O)[C@H](O)[C@@H]5C[C@@H]54)c3n2)c1
## Task Identify the entry with the smaller inhibition: 1 or 2 . Please respond with the label that marks your chosen entry.
## Result 2
